# System: MMP-2 (Homo sapiens)
# Sequence (P08253 110-660): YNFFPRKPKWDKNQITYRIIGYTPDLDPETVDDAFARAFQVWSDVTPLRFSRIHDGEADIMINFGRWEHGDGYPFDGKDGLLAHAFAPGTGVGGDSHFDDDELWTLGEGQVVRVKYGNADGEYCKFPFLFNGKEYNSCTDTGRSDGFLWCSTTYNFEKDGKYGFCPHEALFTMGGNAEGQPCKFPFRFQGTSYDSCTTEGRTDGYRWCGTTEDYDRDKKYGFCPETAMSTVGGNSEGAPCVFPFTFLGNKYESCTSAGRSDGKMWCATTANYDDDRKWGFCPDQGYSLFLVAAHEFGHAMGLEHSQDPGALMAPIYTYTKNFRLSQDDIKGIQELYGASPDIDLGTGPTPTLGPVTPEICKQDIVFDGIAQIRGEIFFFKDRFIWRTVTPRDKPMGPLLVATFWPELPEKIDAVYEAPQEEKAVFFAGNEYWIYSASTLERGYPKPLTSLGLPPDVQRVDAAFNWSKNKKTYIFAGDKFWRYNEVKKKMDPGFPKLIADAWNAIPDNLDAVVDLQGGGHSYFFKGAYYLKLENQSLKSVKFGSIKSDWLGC
# Experimental Protocol: P218 quenched fluorescence assay (MMP Microfluorometric Profiling Assay), MMP-2
# Format: biochemical
pIC50: −log10 of the molar value.
Each entry gets -1 if its pIC50 stays under 7, and 1 if its pIC50 is 7 or above.

Some entries whose results are on file:
Compound: CCCCCCCOc1ccc(C(=O)CC(CCN2C(=O)c3ccccc3C2=O)C(=O)O)cc1 (stereo not shown) [Example 10]
Category: 1
//
Compound: O=C(CC(CCN1C(=O)c2ccccc2C1=O)C(=O)O)c1ccc(Br)cc1 (stereo not shown) [Compound B, reference compound]
Category: -1
//
Compound: CCCCC#Cc1ccc(C(=O)CC(CCCc2ccccc2)C(=O)O)cc1 (stereo not shown) [Example 2]
Category: -1
//
Compound: O=C(CC(CCN1C(=O)c2ccccc2C1=O)C(=O)O)c1ccc(OCCOCc2ccccc2)cc1 (stereo not shown) [Example 13]
Category: 1
//
Compound: CCCCCCc1ccc(C(=O)CC(CCN2C(=O)c3ccccc3C2=O)C(=O)O)cc1 (stereo not shown) [Example 7]
Category: -1

INPUT: Given the entry CCCCC#Cc1ccc(C(=O)CC(CCN2C(=O)c3ccccc3C2=O)C(=O)O)cc1 (stereo not shown) [Example 4] , answer whether its pIC50 meets or surpasses 7.
OUTPUT: 1

INPUT: O=C(CC(CCN1C(=O)c2ccccc2C1=O)C(=O)O)c1ccccc1 (stereo not shown) [Compound D, reference compound] , same question.
OUTPUT: -1
